test system: MOLT-4 leukemia; experiment: NCI tumour cell line growth inhibition, 48 h
Reported TGI values follow for various compounds

Worked cases, answers included:
Q) So what's the measured TGI for this one? CCOC(=O)/C(C#N)=C/Nc1ccc(-c2nc3ccccc3[nH]2)cc1
A) > 100 µM

Q) Let us now turn to O=C1OC(=O)C2C1C(c1ccccc1[N+](=O)[O-])C=C(c1ccco1)N2c1ccncc1 (centres undefined)
A) 6.38 µM

Q) Let us now turn to CC(=O)O[C@H]1C=CC23OC(=O)[C@]1(C)[C@H]2[C@H](C(=O)O)C12CC(=O)[C@@](CO)(CC[C@H]13)C2
A) > 100 µM

Q) Let us now turn to Cc1nc2c(=O)[nH]c3ccc(Cl)cc3c2o1
A) > 100 µM

Q) Let us now turn to O=P1(c2ccccc2)C2=CCC=CC2C(c2ccccc2)N1Cc1ccccc1 (centres undefined)
A) 38.7 µM

Others:
Q) So what's the measured TGI for this one? COc1ccccc1NCC(=O)Nn1c(C)nc2ccc(S(=O)(=O)Nc3ccccc3OC)cc2c1=O
A) > 100 µM

Q) Let us now turn to CCN(CC)CCC(=O)c1ccc(Oc2ccc(F)cc2)cc1
A) 51.3 µM

Q) Let us now turn to OC(CN1CCCCC1)c1ccc(/C=C/c2ccc(Cl)cc2)cc1 (centres undefined)
A) > 100 µM

Q) Let us now turn to Nc1ccc(-c2nc3ccccc3s2)cc1Br
A) > 100 µM
